tested on: KM-20L2; experiment: NCI tumour cell line growth inhibition, 48 h
Active and inactive are the calls of the source. Rule as the data show it: active = GI50 up to about 1.1 µM and inactive = higher.
For each entry below, report its GI50 value.

Worked cases, GI50 given:
{"compound": "CCOC(=O)C1(C)CCC(C(=O)OC)C1=O (stereo unspecified)", "GI50": "> 100 µM (inactive)"}
{"compound": "COc1cc(/C=C/C(=N\\NC(=O)c2ccccc2)c2sc(Nc3ccc(Cl)c(Cl)c3)nc2C)ccc1O", "GI50": "33.4 µM (inactive)"}
{"compound": "C/C(CN1C(=O)c2ccccc2C1=O)=N\\NS(=O)(=O)c1ccccc1", "GI50": "> 100 µM (inactive)"}
{"compound": "N#C/C(=C\\c1ccc[nH]1)C(=O)c1ccccc1", "GI50": "> 100 µM (inactive)"}
{"compound": "COc1ccc(C(=C[N+](=O)[O-])c2ccc(OC)cc2)cc1", "GI50": "10.6 µM (inactive)"}

Which GI50 reading was recorded for the compound COc1ccc(OC)c(/C=C/C(=O)C(C)(C)C)c1 ?
23.6 µM (inactive)

###

system: RPMI-8226; assay: NCI tumour cell line growth inhibition, 48 h
Active and inactive are the calls of the source. Rule as the data show it: active = GI50 up to about 1.1 µM and inactive = higher.
endpoint.name: GI50

Worked cases, GI50 given:
{"compound": "O=C(/C=C\\c1cccc2ccccc12)c1ccc(Br)cc1", "measured.on": "RPMI-8226", "endpoint.name": "GI50", "result": "14.8 µM (inactive)"}
{"compound": "Cc1ccc([N+](=O)[O-])cc1S(=O)(=O)Nc1ccc(C2=NOC(c3ccccc3O)C2)cc1 (stereo not given)", "measured.on": "RPMI-8226", "endpoint.name": "GI50", "result": "4.26 µM (inactive)"}
{"compound": "CSc1nc2c(c(O)c(C)c(=O)n2C2OCC(OC(C)=O)C(OC(C)=O)C2OC(C)=O)c(=O)n1C (stereo not given)", "measured.on": "RPMI-8226", "endpoint.name": "GI50", "result": "> 100 µM (inactive)"}
{"compound": "Cc1ccc2c(c1)C(=O)/C(=C\\c1ccc(Cl)cc1)CCS2(=O)=O", "measured.on": "RPMI-8226", "endpoint.name": "GI50", "result": "2.34 µM (inactive)"}
{"compound": "O=C1C(Cl)=C(Cl)C(=O)C2=C1C1c3ccccc3C2c2ccccc21", "measured.on": "RPMI-8226", "endpoint.name": "GI50", "result": "25.6 µM (inactive)"}
{"compound": "CC1(C)CC2(C)ON=C(c3ccccc3)N2c2ccccc2N1 (stereo not given)", "measured.on": "RPMI-8226", "endpoint.name": "GI50", "result": "29 µM (inactive)"}
{"compound": "Cc1ccc(S(=O)(=O)N2CC3OC(C)(C)OC3C2CO)cc1 (stereo not given)", "measured.on": "RPMI-8226", "endpoint.name": "GI50", "result": "> 100 µM (inactive)"}
{"compound": "COC(=O)[C@]12CSC[C@H]1C[C@H](c1cccc3ccccc13)N2", "measured.on": "RPMI-8226", "endpoint.name": "GI50", "result": "61.8 µM (inactive)"}
{"compound": "Cc1cccc(N2C(=O)C3c4[nH]c5ccccc5c4C4CCC(C(C)(C)C)CC4C3C2=O)c1C (stereo not given)", "measured.on": "RPMI-8226", "endpoint.name": "GI50", "result": "> 100 µM (inactive)"}

Continue with the compound presented below.
Give GI50 (RPMI-8226) of the following compound: O=C(Nc1ccc(Cl)cc1)C1C(=O)C(=O)N(c2ccc(Cl)cc2)C1=O (stereo not given)
> 100 µM (inactive)

The values you see were collected from ChEMBL document CHEMBL1201862.
